# Tested on: CAL-85-1
# Test details: normalised viability (% of control), CellTiter-Blue; higher = more viable cells (about 100 = DMSO control)
# Details: incubation time: 72 h
Note to self: normalised viability under 80% means 1.0, ties and anything higher get 0.0.

{"Compound": "O=P1(N(CCCl)CCCl)NCCCO1 (configuration not stated) [Cyclophosphamide] (4000 nM)", "Target": "CAL-85-1", "Group": 0.0}
{"Compound": "O=C(/C=C/c1cccc(S(=O)(=O)Nc2ccccc2)c1)NO [Belinostat] (1000 nM)", "Target": "CAL-85-1", "Group": 1.0}
{"Compound": "O=C(Nc1ccncc1)C(=O)c1cn(Cc2ccc(Cl)cc2)c2ccccc12 [Indibulin] (1000 nM)", "Target": "CAL-85-1", "Group": 1.0}
{"Compound": "NC(=O)c1ccc(I)c([N+](=O)[O-])c1 [Iniparib] (1000 nM)", "Target": "CAL-85-1", "Group": 0.0}
{"Compound": "Oc1ccc2c(c1)CC[C@H](c1ccccc1)[C@@H]2c1ccc(OCCN2CCCC2)cc1 [Lasofoxifene] (100 nM)", "Target": "CAL-85-1", "Group": 0.0}
{"Compound": "CN(C)CCOc1ccc(/C(=C(/CCCl)c2ccccc2)c2ccccc2)cc1 [Toremifene] (1000 nM)", "Target": "CAL-85-1", "Group": 0.0}
{"Compound": "N#Cc1ccc(COC[C@H]2O[C@@H](n3c(NCc4ccc(Cl)c(Cl)c4)nc4c(N)ncnc43)[C@H](O)[C@@H]2O)cc1 (1000 nM)", "Target": "CAL-85-1", "Group": 0.0}

###

// reported normalised viability per item
# System: CAL-51
# Test details: normalised viability (% of control), CellTiter-Blue; higher = more viable cells (about 100 = DMSO control)
# Details: 100 nM; incubation time: 72 h

{"Chemical structure": "COc1cc2/c(=N/c3ccc(Br)cc3F)nc[nH]c2cc1OCC1CCN(C)CC1", "normalised viability / %": 92.3}
{"Chemical structure": "Cc1cc(Nc2cc(CN3CCOCC3)c3nc(C)c(Cc4ccc(Cl)cc4F)n3n2)n[nH]1", "normalised viability / %": 94.2}
{"Chemical structure": "CN(C)c1nc(N(C)C)nc(N(C)C)n1", "normalised viability / %": 105}
{"Chemical structure": "C=C1C[C@@H]2[C@H](CC[C@]3(C)C(=O)CC[C@@H]23)[C@@]2(C)C=CC(=O)C=C12", "normalised viability / %": 86.5}
{"Chemical structure": "CN(C)CCOc1ccc(/C(=C(/CCCl)c2ccccc2)c2ccccc2)cc1", "normalised viability / %": 110}
{"Chemical structure": "O=C(Nc1cccnc1)N1CCC(Cc2cccc(Oc3ccc(C(F)(F)F)cn3)c2)CC1", "normalised viability / %": 103}
{"Chemical structure": "CNC(=O)c1cc(Oc2ccc(NC(=O)Nc3ccc(Cl)c(C(F)(F)F)c3)c(F)c2)ccn1", "normalised viability / %": 104}
{"Chemical structure": "COc1cc(OC2CCN(C)CC2)ccc1Nc1ncc2c(n1)n(C1CCCC1)c(=O)n2C", "normalised viability / %": 87.8}

###

# Tested on: CAL-85-1
# Test details: normalised response (% of control), CellTiter-Glo; higher = more viable cells (100 = DMSO, 0 = benzethonium chloride kill control)
# Details: incubation time: 72 h
normalised response below 90% gives 0; normalised response at or above it gives 1.

{"Compound": "COc1cc(O)c2c(c1)/C=C/C[C@H](O)[C@H](O)C(=O)/C=C\\C[C@H](C)OC2=O [(5Z)-7-Oxozeaenol] (1000 nM)", "Target": "CAL-85-1", "Group": 0}
{"Compound": "Cc1[nH]c2ccccc2c1CCNCc1ccc(/C=C/C(=O)NO)cc1 [Panobinostat] (100 nM)", "Target": "CAL-85-1", "Group": 0}
{"Compound": "CN(C)CCOc1ccc(/C(=C(/CCCl)c2ccccc2)c2ccccc2)cc1 [Toremifene] (1000 nM)", "Target": "CAL-85-1", "Group": 1}
{"Compound": "COC(=O)c1ccc2c(c1)NC(=O)/C2=C(\\Nc1ccc(N(C)C(=O)CN2CCN(C)CC2)cc1)c1ccccc1 [Nintedanib] (1 nM)", "Target": "CAL-85-1", "Group": 1}
{"Compound": "COc1cc(OC2CCN(C)CC2)ccc1Nc1ncc2c(n1)n(C1CCCC1)c(=O)n2C [AZ 3146] (10 nM)", "Target": "CAL-85-1", "Group": 1}

###

# System: CAL-120
# Test details: normalised viability (% of control), CellTiter-Blue; higher = more viable cells (100 = DMSO, 0 = benzethonium chloride kill control)
# Details: incubation time: 72 h
Note to self: normalised viability under 90% means Yes, ties and anything higher get No.

{"Compound": "CC(C)C[C@@H](C(=O)N[C@H](C(=O)OC1CCCC1)c1ccccc1)[C@H](O)C(=O)NO [Tosedostat] (1 nM)", "Group": "No"}
{"Compound": "c1ccc2c(CCNc3ccc(Nc4ccncc4)cc3)c[nH]c2c1 [Serdemetan] (1 nM)", "Group": "Yes"}
{"Compound": "O=C(/C=C/c1cccc(S(=O)(=O)Nc2ccccc2)c1)NO [Belinostat] (1 nM)", "Group": "No"}
{"Compound": "Cc1cc(Nc2cc(CN3CCOCC3)c3nc(C)c(Cc4ccc(Cl)cc4F)n3n2)n[nH]1 (1 nM)", "Group": "Yes"}
{"Compound": "C=C1C[C@@H]2[C@H](CC[C@]3(C)C(=O)CC[C@@H]23)[C@@]2(C)C=CC(=O)C=C12 [Exemestane] (1 nM)", "Group": "Yes"}
{"Compound": "COC(=O)c1ccc2c(c1)NC(=O)/C2=C(\\Nc1ccc(N(C)C(=O)CN2CCN(C)CC2)cc1)c1ccccc1 [BIBF 1120] (1 nM)", "Group": "Yes"}

###

# Tested on: BT-549
# Test details: normalised response (% of control), CellTiter-Glo; higher = more viable cells (100 = DMSO, 0 = benzethonium chloride kill control)
# Details: incubation time: 72 h
Reported endpoint: normalised response

{"Molecule": "O=C(/C=C/c1cccc(S(=O)(=O)Nc2ccccc2)c1)NO [Belinostat] (1000 nM)", "Reported value": "59%"}
{"Molecule": "CNC(=O)c1ccc(N2C(=S)N(c3ccc(C#N)c(C(F)(F)F)c3)C(=O)C2(C)C)cc1F [Enzalutamide] (1000 nM)", "Reported value": "96.8%"}
{"Molecule": "Cc1cc(Nc2cc(CN3CCOCC3)c3nc(C)c(Cc4ccc(Cl)cc4F)n3n2)n[nH]1 [Gandotinib] (1 nM)", "Reported value": "105%"}
{"Molecule": "CNC(=O)c1cccc(-c2ccc3c(N4CCOC[C@@H]4C)nc(N4CCOC[C@@H]4C)nc3n2)c1 [AZD2014] (1000 nM)", "Reported value": "34.5%"}
{"Molecule": "COc1cc2/c(=N/c3ccc(Br)cc3F)nc[nH]c2cc1OCC1CCN(C)CC1 [Vandetanib] (1 nM)", "Reported value": "92.7%"}
{"Molecule": "CO[C@H]1C[C@@H]2CC[C@@H](C)[C@@](O)(O2)C(=O)C(=O)N2CCCC[C@H]2C(=O)O[C@H]([C@H](C)C[C@@H]2CC[C@@H](OP(C)(C)=O)[C@H](OC)C2)CC(=O)[C@H](C)/C=C(\\C)[C@@H](O)[C@@H](OC)C(=O)[C@H](C)C[C@H](C)/C=C/C=C/C=C/1C [Ridaforolimus] (0.01 nM)", "Reported value": "101%"}

###

// reported normalised response per item
# Tested on: MDA-MB-468
# Test details: normalised response (% of control), CellTiter-Glo; higher = more viable cells (100 = DMSO, 0 = benzethonium chloride kill control)
# Details: incubation time: 72 h
Reported endpoint: normalised response (%)

{"Compound": "O=C(Nc1ccncc1)C(=O)c1cn(Cc2ccc(Cl)cc2)c2ccccc12 [Indibulin] (10 nM)", "Reported endpoint": "normalised response", "Scale unit": "%", "Reported value": 102}
{"Compound": "Cc1ccc(NC(=O)c2ccc(CN3CCN(C)CC3)cc2)cc1Nc1nc(-c2cccnc2)cs1 [Masitinib] (1000 nM)", "Reported endpoint": "normalised response", "Scale unit": "%", "Reported value": 89.9}
{"Compound": "CO[C@H]1C[C@@H]2CC[C@@H](C)[C@@](O)(O2)C(=O)C(=O)N2CCCC[C@H]2C(=O)O[C@H]([C@H](C)C[C@@H]2CC[C@@H](OP(C)(C)=O)[C@H](OC)C2)CC(=O)[C@H](C)/C=C(\\C)[C@@H](O)[C@@H](OC)C(=O)[C@H](C)C[C@H](C)/C=C/C=C/C=C/1C [Ridaforolimus] (0.01 nM)", "Reported endpoint": "normalised response", "Scale unit": "%", "Reported value": 102}
{"Compound": "COc1cc2ncnc(Nc3ccc(F)c(Cl)c3)c2cc1OCCCN1CCOCC1 [Gefitinib] (10 nM)", "Reported endpoint": "normalised response", "Scale unit": "%", "Reported value": 95.9}
{"Compound": "CNC(=O)c1ccc(N2C(=S)N(c3ccc(C#N)c(C(F)(F)F)c3)C(=O)C23CCC3)cc1F [RD162] (1 nM)", "Reported endpoint": "normalised response", "Scale unit": "%", "Reported value": 106}
{"Compound": "CN(C)c1nc(N(C)C)nc(N(C)C)n1 [Altretamine] (1 nM)", "Reported endpoint": "normalised response", "Scale unit": "%", "Reported value": 101}
